mMOR (Mus musculus): recorded pKi for assorted molecules
Sequence (P42866 whole entry): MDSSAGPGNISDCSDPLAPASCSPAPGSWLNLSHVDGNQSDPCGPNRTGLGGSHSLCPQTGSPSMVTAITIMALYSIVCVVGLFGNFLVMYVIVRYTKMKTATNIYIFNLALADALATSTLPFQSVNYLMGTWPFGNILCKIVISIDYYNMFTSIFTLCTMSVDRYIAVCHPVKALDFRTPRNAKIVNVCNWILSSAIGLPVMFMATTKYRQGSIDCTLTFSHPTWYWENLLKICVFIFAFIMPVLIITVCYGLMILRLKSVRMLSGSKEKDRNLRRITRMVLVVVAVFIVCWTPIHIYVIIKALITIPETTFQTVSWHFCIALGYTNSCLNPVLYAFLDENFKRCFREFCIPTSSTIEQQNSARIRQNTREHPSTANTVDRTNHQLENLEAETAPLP
pKi (log units): -log10 of the concentration in mol/L.

Some molecules with known pKi results, for comparison:
Req: Form field: reported pKi of O=C(N[C@@H]1CC[C@@]2(O)[C@H]3Cc4ccc(O)c5c4[C@@]2(CCN3CC2CC2)[C@H]1O5)c1cccc(I)c1 [IBNtxA, reference compound]
Resp: 9.96

Req: Item: O=C(N[C@@H]1C=CC2[C@H]3Cc4ccc(O)c5c4[C@@]2(CCN3CC2CC2)[C@H]1O5)c1cccc(I)c1 (some centres unmarked) [MP1104, reference compound]
Resp: 10.68

Req: What do you have for O=C(N[C@@H]1CC[C@@]2(O)C3Cc4ccc(O)cc4[C@@]2(CCN3CC2CC2)C1)c1cccc(I)c1 ?
Resp: 9.70

Req: Field entry: N=C(N)NCc1cccc(C(=O)N[C@@H]2CCC3C4Cc5ccc(O)c6c5[C@@]3(CCN4CC3CC3)C2O6)c1 (some centres unmarked)
Resp: 9.47

Consider now this further molecule.
Req: Query (molecule): CO[C@@]12CC[C@@H](NC(=O)c3cccc(I)c3)C3Oc4c(O)ccc5c4[C@@]31CCN(CC1CC1)C2C5 (some centres unmarked) ; field requested: pKi
Resp: 9.60

====

Each entry below carries its reported Emax.
target: hKOR (Homo sapiens); construct: expressed in transfected cells; host or cells: HEK 293T (ATCC CRL-11268), transient; assay: cAMP inhibition assay (GloSensor, HEK 293T), hKOR; format: cell-based; conditions: HEK-293T; read-out: Gi Emax hKOR
Sequence (P41145 whole entry): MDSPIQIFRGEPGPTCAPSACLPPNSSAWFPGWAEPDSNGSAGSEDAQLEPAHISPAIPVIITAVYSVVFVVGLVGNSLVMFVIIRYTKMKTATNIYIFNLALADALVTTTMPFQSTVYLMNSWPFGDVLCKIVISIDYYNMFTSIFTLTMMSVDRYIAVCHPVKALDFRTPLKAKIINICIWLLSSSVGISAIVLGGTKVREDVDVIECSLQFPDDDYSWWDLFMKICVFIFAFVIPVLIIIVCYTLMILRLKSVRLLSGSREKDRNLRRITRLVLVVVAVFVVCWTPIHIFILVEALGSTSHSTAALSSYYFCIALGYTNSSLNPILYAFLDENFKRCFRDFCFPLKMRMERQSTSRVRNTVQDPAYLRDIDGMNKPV
Please give a number only; it is taken to be in %.

Answered cases to consult:
Req: What does the data say about its Emax? Entry: O=C(N[C@@H]1CC[C@@]2(O)C3Cc4ccc(O)cc4[C@@]2(CCN3CC2CC2)C1)c1cccc(I)c1 [MP1601]
Resp: 109

Req: Continue with CO[C@@]12CC[C@@H](NC(=O)c3cccc(I)c3)C3Oc4c(O)ccc5c4[C@@]31CCN(CC1CC1)C2C5 (stereo partly shown) [MP1305]
Resp: 102

Req: # repeat for NCc1ccc(C(=O)N[C@@H]2CC[C@H]3[C@H]4Cc5ccc(O)c6c5[C@@]3(CCN4CC3CC3)[C@H]2O6)cc1 [MP1209]
Resp: 100

More entries:
Req: Recorded Emax for N=C(N)NCc1cccc(C(=O)N[C@@H]2CCC3C4Cc5ccc(O)c6c5[C@@]3(CCN4CC3CC3)C2O6)c1 (stereo partly shown) [MP1208] , please?
Resp: 96

Req: Lookup O=C(N[C@@H]1CC[C@H]2[C@H]3Cc4ccc(O)c5c4[C@@]2(CCN3CC2CC2)[C@H]1O5)c1cccc(CO)c1 [MP1210]
Resp: 101

Req: NCc1cccc(C(=O)NC2CCC3C4Cc5ccc(O)c6c5C3(CCN4CC3CC3)C2O6)c1 (stereo not shown) [MP1207] , same question.
Resp: 90

Req: Now give it for O=C(N[C@@H]1CCC2C3Cc4ccc(O)c5c4C2(CCN3CC2CC2)C1O5)c1cccc(I)c1 (stereo partly shown) [MP1202] too.
Resp: 110

====

biological target: mMOR (Mus musculus); construct: expressed in transfected cells; test: [35S]GTPγS functional assay, mMOR; assay type: biochemical; details: [35S]GTPγS, nM ± SEM
assay-readout: EC50 (nM)
Just the number please, in nM, no unit attached.

Study these solved cases before continuing.
Req: Recorded EC50 of O=C(N[C@@H]1C=CC2[C@H]3Cc4ccc(O)c5c4[C@@]2(CCN3CC2CC2)[C@H]1O5)c1cccc(I)c1 (stereo partly shown) [MP1104, reference compound] , please.
Resp: 0.21

Req: Now the compound O=C(N[C@@H]1CC[C@@]2(O)C3Cc4ccc(O)cc4[C@@]2(CCN3CC2CC2)C1)c1cccc(I)c1
Resp: 0.5

Req: Next record, please: CO[C@@]12CC[C@@H](NC(=O)c3cccc(I)c3)C3Oc4c(O)ccc5c4[C@@]31CCN(CC1CC1)C2C5 (stereo partly shown)
Resp: 0.7

Field: next compound
Req: What EC50 value was documented for this compound, O=C(N[C@@H]1CC[C@@]2(O)[C@H]3Cc4ccc(O)c5c4[C@@]2(CCN3CC2CC2)[C@H]1O5)c1cccc(I)c1 [IBNtxA, reference compound] ?
Resp: 0.49

====

target: mouse delta opioid receptor (mDOR) (Mus musculus, UniProt P32300); construct: expressed in transfected cells; host or cells: HEK-293T, transient (PEI), with BRET sensor cDNAs; test: BRET assay, arrestin recruitment, mDOR; type: cell-based; details: mDOR, BRET
Sequence (P32300 whole entry): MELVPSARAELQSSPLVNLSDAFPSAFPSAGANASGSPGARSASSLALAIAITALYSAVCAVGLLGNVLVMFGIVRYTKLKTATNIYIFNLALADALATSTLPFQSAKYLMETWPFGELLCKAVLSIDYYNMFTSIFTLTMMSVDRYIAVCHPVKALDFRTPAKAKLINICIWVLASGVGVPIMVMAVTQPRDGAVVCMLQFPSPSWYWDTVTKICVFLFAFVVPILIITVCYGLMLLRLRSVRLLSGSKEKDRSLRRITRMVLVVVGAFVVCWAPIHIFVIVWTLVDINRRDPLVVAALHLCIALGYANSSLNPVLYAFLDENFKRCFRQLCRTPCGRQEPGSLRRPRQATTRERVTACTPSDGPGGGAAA
assay-readout: EC50 (nM)
Express it in nM; write the number only.

# annotated cases, reported EC50 shown
Req: # query: EC50 of entry O=C(N[C@@H]1CCC2C3Cc4ccc(O)c5c4C2(CCN3CC2CC2)C1O5)c1cccc(I)c1 (stereo partly shown)
Resp: 525

Req: Queued: O=C(N[C@@H]1CC[C@@]2(O)C3Cc4ccc(O)cc4[C@@]2(CCN3CC2CC2)C1)c1cccc(I)c1
Resp: 9

Req: Follow-up item: O=C(N[C@@H]1C=CC2[C@H]3Cc4ccc(O)c5c4[C@@]2(CCN3CC2CC2)[C@H]1O5)c1cccc(I)c1 (stereo partly shown) [MP1104, reference compound]
Resp: 26

// next item, EC50 requested
Req: Which EC50 is listed for O=C(N[C@@H]1CC[C@@]2(O)[C@H]3Cc4ccc(O)c5c4[C@@]2(CCN3CC2CC2)[C@H]1O5)c1cccc(I)c1 [IBNtxA, reference compound] ?
Resp: 26.6

====

target: hMOR (Homo sapiens, UniProt P35372); construct: expressed in transfected cells; host or cells: HEK 293T (ATCC CRL-11268), transient; test: cell-based; format: cell-based
Sequence (P35372 whole entry): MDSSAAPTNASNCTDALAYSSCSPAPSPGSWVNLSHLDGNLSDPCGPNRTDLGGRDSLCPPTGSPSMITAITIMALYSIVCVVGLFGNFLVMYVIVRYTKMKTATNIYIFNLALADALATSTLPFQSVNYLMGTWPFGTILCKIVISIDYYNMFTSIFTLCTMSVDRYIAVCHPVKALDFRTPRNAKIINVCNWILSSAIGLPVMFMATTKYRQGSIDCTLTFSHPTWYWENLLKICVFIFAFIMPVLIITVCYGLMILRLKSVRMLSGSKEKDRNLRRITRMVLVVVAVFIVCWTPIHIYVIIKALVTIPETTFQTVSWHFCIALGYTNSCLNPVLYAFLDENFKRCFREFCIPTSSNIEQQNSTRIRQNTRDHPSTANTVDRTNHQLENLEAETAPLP
assay-readout: pEC50
pEC50 is defined as minus the log10 of a concentration measured in mol/L.

Req: GET /values?readout=pEC50&item= N=C(N)NCc1cccc(C(=O)N[C@@H]2CCC3C4Cc5ccc(O)c6c5[C@@]3(CCN4CC3CC3)C2O6)c1 (stereo partly drawn)
Resp: 8.73

Req: Now this one: O=C(N[C@@H]1CCC2C3Cc4ccc(O)c5c4C2(CCN3CC2CC2)C1O5)c1cccc(I)c1 (stereo partly drawn)
Resp: 10.11

Okay, now this molecule:
Req: Tell me the measured pEC50 of NCc1cccc(C(=O)NC2CCC3C4Cc5ccc(O)c6c5C3(CCN4CC3CC3)C2O6)c1 (stereo not drawn) , please.
Resp: 10.47

====

target: mouse delta opioid receptor (mDOR) (Mus musculus); construct: expressed in transfected cells; host or cells: HEK-293T, transient (PEI), with BRET sensor cDNAs; assay: BRET assay, G-protein activation, mDOR; type: cell-based; conditions: read-out: G-Protein activation Emax % ± SEM
assay-readout: Emax (%)
Just the number in %, nothing appended.

Req: Field request: Emax | item: O=C(N[C@@H]1CC[C@@]2(O)C3Cc4ccc(O)cc4[C@@]2(CCN3CC2CC2)C1)c1cccc(I)c1
Resp: 105

Req: // same read-out, input: NCc1cccc(C(=O)NC2CCC3C4Cc5ccc(O)c6c5C3(CCN4CC3CC3)C2O6)c1 (centres unmarked)
Resp: 52

Req: Queued: CO[C@@]12CC[C@@H](NC(=O)c3cccc(I)c3)C3Oc4c(O)ccc5c4[C@@]31CCN(CC1CC1)C2C5 (some centres unmarked)
Resp: 105

---
Req: For the compound shown here, N=C(N)NCc1cccc(C(=O)N[C@@H]2CCC3C4Cc5ccc(O)c6c5[C@@]3(CCN4CC3CC3)C2O6)c1 (some centres unmarked) , give the reported Emax.
Resp: 58

Req: Can you check O=C(N[C@@H]1CCC2C3Cc4ccc(O)c5c4C2(CCN3CC2CC2)C1O5)c1cccc(I)c1 (some centres unmarked) next?
Resp: 103

====

target: mDOR (Mus musculus); construct: expressed in transfected cells; experiment: [35S]GTPγS functional assay, mDOR; type: biochemical; conditions: [35S]GTPγS, nM ± SEM
Sequence (P32300 whole entry): as the sequence (P32300 whole entry) above
assay-readout: EC50

Take a look at these entries with their results.
Req: Which measured EC50 value corresponds to O=C(N[C@@H]1CC[C@@]2(O)[C@H]3Cc4ccc(O)c5c4[C@@]2(CCN3CC2CC2)[C@H]1O5)c1cccc(I)c1 [IBNtxA, reference compound] ?
Resp: 4.08 nM

Req: Same question for CO[C@@]12CC[C@@H](NC(=O)c3cccc(I)c3)C3Oc4c(O)ccc5c4[C@@]31CCN(CC1CC1)C2C5 (stereo partly shown) please.
Resp: 31.7 nM

Req: And then O=C(N[C@@H]1CC[C@@]2(O)C3Cc4ccc(O)cc4[C@@]2(CCN3CC2CC2)C1)c1cccc(I)c1 , what is it?
Resp: 10 nM

Consider now this further compound.
Req: Look up EC50: O=C(N[C@@H]1C=CC2[C@H]3Cc4ccc(O)c5c4[C@@]2(CCN3CC2CC2)[C@H]1O5)c1cccc(I)c1 (stereo partly shown) [MP1104, reference compound]
Resp: 0.41 nM
